# target system: Cathepsin D (Homo sapiens)
# Sequence (P07339 65-162 limits assumed): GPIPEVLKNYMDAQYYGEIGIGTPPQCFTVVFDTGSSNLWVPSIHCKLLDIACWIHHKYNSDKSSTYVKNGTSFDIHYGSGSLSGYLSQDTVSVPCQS
# Sequence (P07339 169-412 limits assumed): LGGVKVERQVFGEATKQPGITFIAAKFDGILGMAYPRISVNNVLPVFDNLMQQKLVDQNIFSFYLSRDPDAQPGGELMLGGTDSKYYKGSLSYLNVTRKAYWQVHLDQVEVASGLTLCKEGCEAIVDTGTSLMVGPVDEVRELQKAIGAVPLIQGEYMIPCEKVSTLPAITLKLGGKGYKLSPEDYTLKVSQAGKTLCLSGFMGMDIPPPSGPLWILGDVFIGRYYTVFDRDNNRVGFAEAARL
property measured: pKi
Convention used: pKi is expressed as -log10 of the molar concentration.

The molecule "C=CCO[C@H](C[C@H](O)[C@H](COc1cc(F)cc(F)c1)NC(=O)c1cc(C(=O)N[C@H](C)c2ccccc2)cc(N(C)S(C)(=O)=O)c1)C(=O)N[C@H](C(=O)NCc1ccccc1)C(C)C" showed pKi equal to 6.89

---

The next entries give measured Ki for Beta-secretase 1 (Homo sapiens).
property measured: Ki (nM)

The compound identified as "CC(C)[C@H](NC(=O)[C@@H](C[C@H](O)[C@H](COc1cc(F)cc(F)c1)NC(=O)c1cc(C(=O)N[C@H](C)c2ccccc2)cc(N(C)S(C)(=O)=O)c1)OCc1ccccc1)C(=O)NCc1ccccc1" registered its Ki at 20

Please fill in: Ki reported for CO[C@H](CCC(COc1cc(F)cc(F)c1)NC(=O)c1cc(C(=O)N[C@H](C)c2ccccc2)cc(N(C)S(C)(=O)=O)c1)C(=O)N[C@H](C(=O)NCc1ccccc1)C(C)C (single isomer, unassigned) = 130

For reference, reported Ki for "CCCO[C@H](C[C@H](O)[C@H](COc1cc(F)cc(F)c1)NC(=O)c1cc(C(=O)N[C@H](C)c2ccccc2)cc(N(C)S(C)(=O)=O)c1)C(=O)N[C@H](C(=O)NCc1ccccc1)C(C)C" stands at 3

[1] CO[C@H](C[C@H](N=[N+]=[N-])C(COc1cc(F)cc(F)c1)NC(=O)c1cc(C(=O)N[C@H](C)c2ccccc2)cc(N(C)S(C)(=O)=O)c1)C(=O)N[C@H](C(=O)NCc1ccccc1)C(C)C (single isomer, unassigned)
[2] CO[C@H](C[C@H](N)C(COc1cc(F)cc(F)c1)NC(=O)c1cc(C(=O)N[C@H](C)c2ccccc2)cc(N(C)S(C)(=O)=O)c1)C(=O)N[C@H](C(=O)NCc1ccccc1)C(C)C (single isomer, unassigned)
Task for the reader: decide whether 1 or 2 has the larger Ki. // return label of chosen record
2
